Each item that follows carries a reported pIC50.
# target-or-system: UniProt:O76074
# log scale: pIC50 equals minus log10 of the concentration in mol/L

molecule	pIC50
CCCCN1C(=O)[C@H]2Cc3c([nH]c4ccccc34)[C@@H](c3ccc(Cl)cc3)N2C1=O (relative stereo)	7.30

Reported UniProt:O76074 pIC50 for item CCOc1ccc([C@H]2c3[nH]c4ccccc4c3C[C@@H]3C(=O)N(CCc4ccccn4)C(=O)N23)cc1 (relative stereo) was 8.22

Reported UniProt:O76074 pIC50 for item CCCCN1C(=O)[C@H]2Cc3c([nH]c4ccccc34)[C@@H](c3ccncc3)N2C1=O (relative stereo) was 6.52

Reported UniProt:O76074 pIC50 for item `CCCc1n[nH]c2c(=O)[nH]c(-c3ccccc3)nc12` was 7.09

Reported UniProt:O76074 pIC50 for item `CCOc1ccc([C@@H]2c3[nH]c4ccccc4c3C[C@@H]3C(=O)N(C4CCCCC4)C(=O)N23)cc1` was 8.15

Reported UniProt:O76074 pIC50 for item CCOc1ccc([C@H]2c3[nH]c4ccccc4c3C[C@@H]3C(=O)N(C4CCCCC4)C(=O)N23)cc1 (relative stereo) was 8.52

* * *

# target-or-system: cGMP-specific 3',5'-cyclic phosphodiesterase (Homo sapiens, UniProt O76074)
The label Met is reserved for IC50 strictly under 7 nM; Not met covers values equal to or above it.

compound	assigned-class
CCOc1ccc([C@@H]2c3[nH]c4ccccc4c3C[C@@H]3C(=O)N(C)C(=O)N23)cc1 (relative stereo)	Not met
CCOc1ccc([C@H]2c3[nH]c4ccccc4c3C[C@@H]3C(=O)N(CCN(C)C)C(=O)N23)cc1 (relative stereo)	Not met
CCOc1ccc([C@@H]2c3[nH]c4ccccc4c3C[C@@H]3C(=O)N(CC)C(=O)N23)cc1 (relative stereo)	Not met
CCCc1nn(C)c2c(=O)[nH]c(-c3cc(S(=O)(=O)N4CCC(C(N)=O)CC4)ccc3OCC)nc12	Met

Next, consider the following compound.
# TODO verify IC50 < 7 nM strictly for this compound: CCOc1ccc([C@@H]2c3[nH]c4ccccc4c3C[C@@H]3C(=O)N(Cc4ccccc4)C(=O)N23)cc1 (relative stereo)
Met
